Measured log10 IC50 values are reported for all entries that follow.
- tested on: human chemokine receptor 2 isoform B (Homo sapiens, UniProt P41597)
- experiment description: Calcium mobilization assay (FLIPR, antagonist activity against MCP-1)
- experimental setup: Ca mobilisation assay, CHOK1-CCR2B-A5 cells, inhibition of calcium increase induced by 20 nM MCP-1
In plain terms, each number is the log10 of measured IC50 in nM.

O=C1CC2(CCN(C(=O)CCN3CCN(C(=O)/C=C/c4ccc(Cl)c(Cl)c4)CCC3=O)CC2)C(=O)N1    3.06
CNC(=O)[C@H](CCC(=O)N1CCC2(CC2)[C@H](O)C1)N1CCN(C(=O)Nc2ccc(C(F)(F)F)c(Cl)c2)[C@@H](C)C1=O    3.12
C[C@H]1C(=O)N(CCCC(=O)N2CCC(C)(C)[C@H](O)C2)CCN1C(=O)Nc1ccc(Cl)c(Cl)c1    1.34
C[C@H]1C[C@H](O)CN(C(=O)CCN2CCN(C(=O)Nc3ccc(Cl)c(Cl)c3)[C@@H](C)C2=O)C1    3.58
COC[C@H](CCC(=O)N1CCC2(CC2)[C@H](O)C1)N1CCN(c2ccc(C(F)(F)F)c(Cl)c2)[C@@H](C)C1=O    2.49

Field log10 IC50 (entry CN(C)C(=O)[C@@H](CCO)N1CCN(C(=O)/C=C/c2cccc(Cl)c2)CCC1=O ) reads 2.96

Documented log10 IC50 of C[C@H]1C(=O)N(CCCC(=O)N2CCC3(CC3)[C@H](O)C2)CCN1C(=O)Nc1ccc(Cl)c(C(F)(F)F)c1 : 0.77

---

Measured pIC50, listed per entry.
- tested on: human chemokine receptor 2 isoform B (Homo sapiens, UniProt P41597)
- Sequence (P41597 1-360 isoform P41597-2): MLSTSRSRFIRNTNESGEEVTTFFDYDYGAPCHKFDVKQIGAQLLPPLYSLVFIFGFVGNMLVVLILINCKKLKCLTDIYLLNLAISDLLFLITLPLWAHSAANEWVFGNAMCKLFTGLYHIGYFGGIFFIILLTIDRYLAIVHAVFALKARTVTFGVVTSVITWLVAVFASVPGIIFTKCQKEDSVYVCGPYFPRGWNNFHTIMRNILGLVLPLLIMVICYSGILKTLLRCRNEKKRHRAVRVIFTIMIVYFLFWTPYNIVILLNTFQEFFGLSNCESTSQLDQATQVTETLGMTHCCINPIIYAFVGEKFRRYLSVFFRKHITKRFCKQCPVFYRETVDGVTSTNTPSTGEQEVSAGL
- experiment description: Calcium mobilization assay (FLIPR, antagonist activity against MCP-1)
- experimental setup: Ca mobilisation assay, CHOK1-CCR2B-A5 cells, inhibition of calcium increase induced by 20 nM MCP-1
// pIC50 here means minus log10 of the molar concentration (mol/L)

CC1(O)CCN(C(=O)CCN2CCN(C(=O)/C=C/c3ccc(Cl)c(Cl)c3)CCC2=O)CC1 [Example 73]    7.18
CN(C)C(=O)C(CCO)N1CCN(C(=O)/C=C/c2ccc(Cl)c(Cl)c2)CCC1=O (racemic) [Example 3]    6.25
C[C@H]1C(=O)N(CCCC(=O)N2CCC3(CC3)[C@H](O)C2)CCN1C(=O)Nc1ccc(Cl)c(Cl)c1 [Example 25]    8.44

So for C[C@H]1C(=O)N(CCC(=O)N2CC[C@](C)(CO)[C@H](O)C2)CCN1C(=O)Nc1ccc(Cl)c(Cl)c1 (mixture of isomers) [Example 21] , the logged pIC50 turned out to be 6.07

get_value(item= C[C@H]1C(=O)N(CCCC(=O)N2CCC3(CC3)[C@H](O)C2)CCN1C(=O)Nc1cccc(C(F)(F)F)c1 [Example 28] , readout=pIC50) returns 7.26

Quick note, pIC50 for C[C@H]1C(=O)N(CCC(=O)N2CCC(C)(O)CC2)CCN1C(=O)Nc1ccc(Cl)c(Cl)c1 [Example 18] landed at 5.98

The measured pIC50 associated with C[C@H]1C(=O)N([C@@H](CCC(=O)N2CCC3(CC3)[C@H](O)C2)C(=O)O)CCN1C(=O)Nc1ccc(OC(F)(F)F)c(Cl)c1 [Example 56] reads 6.41

Recorded values, source patent US8445674B2.
